Reported cell viability by item:
test system: P12-Ichikawa; experiment: cell viability relative to DMSO control; higher = less cytotoxic; settings: HPLM + 10% dialyzed FBS; 48 h; 1.71 µM
Answer format: numeric, % implied, no suffix.

Compound | Attribute Measured | Numeric Result
NCCOc1cc(C(=O)Nc2cc(OCCN)c3ccccc3n2)nc(C(=O)Nc2cc(OCCN)c3ccccc3n2)c1 | cell viability | 9.79
COc1cc2c(cc1OC)CN(CCc1ccc(NC(=O)c3cccc4c(=O)c5cccc(OC)c5[nH]c34)cc1)CC2 | cell viability | 21.1
CC[C@H](C)C(=O)O[C@H]1C[C@@H](C)\C=C2\C=C/[C@H](C)[C@H](CC[C@@H]3C[C@@H](O)CC(=O)O3)[C@@H]12 | cell viability | 91.7
Clc1ccc(C(c2ccccc2Cl)C(Cl)Cl)cc1 (stereo not drawn) | cell viability | 110
Cc1cccc(-c2[nH]c(C(C)(C)C)nc2-c2ccc3nccnc3c2)n1 | cell viability | 110
CCC(=O)O[C@@]1(CC[C@H]2[C@@H]3CCC/4=C/C(=O)CC[C@]4(C)[C@H]3CC[C@]12C)C(=O)CO | cell viability | 107

Looking for the measured cell viability of COc1ccc(/C=C/C(=O)Nc2ccccc2C(=O)O)cc1OC , can you help?
100

Looking for the measured cell viability of CCOc1cc(C(=O)Nc2ccc(Cl)c(-c3nc4ccccc4[nH]3)c2)cc(OCC)c1OCC , can you help?
96.1

Looking for the measured cell viability of CCC(=O)NC[C@H](Cc1ccc(OCCc2nc(-c3ccccc3)oc2C)cc1)N/C(C)=C\C(=O)c1ccc(C(F)(F)F)cc1 , can you help?
99.1

Looking for the measured cell viability of COCCCC/C(=N\OCCN)c1ccc(C(F)(F)F)cc1 , can you help?
85

Looking for the measured cell viability of CCOC(=O)c1c(CSc2ccccc2)n(C)c2cc(Br)c(O)c(CN(C)C)c12 , can you help?
115

Looking for the measured cell viability of O=c1oc2cc(O)ccc2s1 , can you help?
110

Looking for the measured cell viability of CC(C)[C@H](O)C(=O)N[C@@H](C)C(=O)N[C@@H]1C(=O)N(C)CCc2ccccc21 , can you help?
90.7

Looking for the measured cell viability of COC(=O)CCC1=C(C)C2=CC3=NC(=CC4=C(C)C(=C([NH]4)C=C\5N=C(C=C1[NH]2)\C(=C5C)CCC(O)=O)C=C)\C6=C\C=C(/[C@@H](C(=O)OC)[C@@]36C)C(=O)OC , can you help?
106
